Test: Gravimetric vapor sorption (GVS)
Assay type: physicochemical
Conditions: form change after GVS cycles
Recorded Metric: XRPD after GVS analysis

INSERT INTO measurements (compound, recorded_metric, data_value) VALUES
  ('COc1cc2ncnc(Oc3cccc(NC(=O)Nc4cc(C(C)(C)C(F)(F)F)on4)c3)c2cc1OC.O=P(O)(O)O [Phosphate A1]', 'XRPD after GVS analysis', 'No change'),
  ('COc1cc2ncnc(Oc3cccc(NC(=O)Nc4cc(C(C)(C)C(F)(F)F)on4)c3)c2cc1OC.Cl [Chloride A1]', 'XRPD after GVS analysis', 'No change'),
  ('COc1cc2ncnc(Oc3cccc(NC(=O)Nc4cc(C(C)(C)C(F)(F)F)on4)c3)c2cc1OC [Bromide A1]', 'XRPD after GVS analysis', 'No change');

====

Experiment: Solubility of Form A0 in organic solvents at the boiling point
Type: physicochemical
Details: organic solvent or mixture, thermodynamic from solid; Acetone, 56.5 ° C.; read-out: Solubility Estimate at The Boiling Point
Recorded Metric: solubility

**Query** Note solubility for the compound shown: COc1cc2ncnc(Oc3cccc(NC(=O)Nc4cc(C(C)(C)C(F)(F)F)on4)c3)c2cc1OC [Form A0]
**Result** > 50 mg/mL

====

Test: Solubility of Form A0 in organic solvents at the boiling point
Assay type: physicochemical
Settings: organic solvent or mixture, thermodynamic from solid; Dichloromethane, 40.0 ° C.; read-out: Solubility Estimate at The Boiling Point
Description: The following procedure was used to assess the solubility of the anhydrous free base of Compound I (Form A0) in a range of nine organic solvents listed in Table 3. Using 1.8 mL HPLC vials, approximately 10 mg of Form A0 was stirred at the boiling point in 200 μL of nine different solvents. […] The additions were stopped when the solid dissolved or when 1000 μL had been dispensed. […] Methyl t-butyl ether was chosen as an anti-solvent (<10 mg/mL).
Recorded Metric: solubility

**Query** Report measured solubility; entry is COc1cc2ncnc(Oc3cccc(NC(=O)Nc4cc(C(C)(C)C(F)(F)F)on4)c3)c2cc1OC [Form A0]
**Result** > 20 mg/mL

====

Assay: Kinetic solubility measurement in pure water
Type: physicochemical
Settings: pH of the aqueous solubility sample
Recorded Metric: pH
# print the numeric value only

**Query** Output measured pH for this item: COc1cc2ncnc(Oc3cccc(NC(=O)Nc4cc(C(C)(C)C(F)(F)F)on4)c3)c2cc1OC [Form A0]
**Result** 7.4

**Query** Please give measured pH of the following entry: COc1cc2ncnc(Oc3cccc(NC(=O)Nc4cc(C(C)(C)C(F)(F)F)on4)c3)c2cc1OC.O=P(O)(O)O [Phosphate A1]
**Result** 6.8

**Query** Consider the compound COc1cc2ncnc(Oc3cccc(NC(=O)Nc4cc(C(C)(C)C(F)(F)F)on4)c3)c2cc1OC.O=C(O)CC(=O)O [Malonate A1] and give its recorded pH.
**Result** 6.6

**Query** Give the reported value of pH for this record: COc1cc2ncnc(Oc3cccc(NC(=O)Nc4cc(C(C)(C)C(F)(F)F)on4)c3)c2cc1OC.Cl [Chloride A1]
**Result** 7.3

**Query** Identify pH associated with the compound COc1cc2ncnc(Oc3cccc(NC(=O)Nc4cc(C(C)(C)C(F)(F)F)on4)c3)c2cc1OC [Bromide A1]
**Result** 6.6

====

Assay: Kinetic solubility measurement in pure water
Type: physicochemical
Conditions: pure water, ambient room temperature, 20 minutes, expressed as free base
Recorded Metric: Aqueous solubility (µg/mL)
I only need the number, in µg/mL, no unit after it.

**Query** Assign Aqueous solubility to the following record: COc1cc2ncnc(Oc3cccc(NC(=O)Nc4cc(C(C)(C)C(F)(F)F)on4)c3)c2cc1OC [Bromide A1]
**Result** 100

**Query** Specify measured Aqueous solubility for COc1cc2ncnc(Oc3cccc(NC(=O)Nc4cc(C(C)(C)C(F)(F)F)on4)c3)c2cc1OC.O=P(O)(O)O [Phosphate A1] .
**Result** 90

**Query** Please report Aqueous solubility for the following molecule: COc1cc2ncnc(Oc3cccc(NC(=O)Nc4cc(C(C)(C)C(F)(F)F)on4)c3)c2cc1OC.Cl [Chloride A1]
**Result** 560

**Query** Check the records and state Aqueous solubility for COc1cc2ncnc(Oc3cccc(NC(=O)Nc4cc(C(C)(C)C(F)(F)F)on4)c3)c2cc1OC.O=C(O)CC(=O)O [Malonate A1]
**Result** 70

====

Experiment: Gravimetric vapor sorption (GVS)
Format: physicochemical
Conditions: 90% RH, 25° C.
Answer each item with its documented GVS: Percent increase in mass at 90% RH.
Numeric answer only, unit % assumed.

**Query** Supply reported GVS: Percent increase in mass at 90% RH belonging to this compound: COc1cc2ncnc(Oc3cccc(NC(=O)Nc4cc(C(C)(C)C(F)(F)F)on4)c3)c2cc1OC [Form A0]
**Result** 1.3

**Query** Specify reported GVS: Percent increase in mass at 90% RH for the compound shown: COc1cc2ncnc(Oc3cccc(NC(=O)Nc4cc(C(C)(C)C(F)(F)F)on4)c3)c2cc1OC.Cl [Chloride A1]
**Result** 1.7

**Query** Give GVS: Percent increase in mass at 90% RH for the following compound: COc1cc2ncnc(Oc3cccc(NC(=O)Nc4cc(C(C)(C)C(F)(F)F)on4)c3)c2cc1OC [Bromide A1]
**Result** 1.0

**Query** Entry COc1cc2ncnc(Oc3cccc(NC(=O)Nc4cc(C(C)(C)C(F)(F)F)on4)c3)c2cc1OC.O=P(O)(O)O [Phosphate A1] needs its GVS: Percent increase in mass at 90% RH filled in; supply it.
**Result** 2.7

====

Assay: Solubility of Form A0 in organic solvents at the boiling point
Format: physicochemical
Details: organic solvent or mixture, thermodynamic from solid; Tetrahydrofuran, 66.0 ° C.; read-out: Solubility Estimate at The Boiling Point
Procedure: The following procedure was used to assess the solubility of the anhydrous free base of Compound I (Form A0) in a range of nine organic solvents listed in Table 3. Using 1.8 mL HPLC vials, approximately 10 mg of Form A0 was stirred at the boiling point in 200 μL of nine different solvents. […] The additions were stopped when the solid dissolved or when 1000 μL had been dispensed. […] Methyl t-butyl ether was chosen as an anti-solvent (<10 mg/mL).
Recorded Metric: solubility

**Query** # return recorded solubility for input COc1cc2ncnc(Oc3cccc(NC(=O)Nc4cc(C(C)(C)C(F)(F)F)on4)c3)c2cc1OC [Form A0]
**Result** > 50 mg/mL

====

Assay: Solubility of Form A0 in organic solvents at the boiling point
Assay type: physicochemical
Conditions: organic solvent or mixture, thermodynamic from solid; Ethyl Acetate, 77.1 ° C.; read-out: Solubility Estimate at The Boiling Point
Recorded Metric: solubility

**Query** Supply reported solubility belonging to this compound: COc1cc2ncnc(Oc3cccc(NC(=O)Nc4cc(C(C)(C)C(F)(F)F)on4)c3)c2cc1OC [Form A0]
**Result** < 30 mg/mL

====

Assay: Solubility of Form A0 in organic solvents at the boiling point
Format: physicochemical
Conditions: organic solvent or mixture, thermodynamic from solid; Methyl-t-butyl Ether, 55.2 ° C.; read-out: Solubility Estimate at The Boiling Point
Recorded Metric: solubility

**Query** Identify measured solubility corresponding to COc1cc2ncnc(Oc3cccc(NC(=O)Nc4cc(C(C)(C)C(F)(F)F)on4)c3)c2cc1OC [Form A0]
**Result** < 10000 µg/mL

====

Experiment: Solubility of Form A0 in organic solvents at the boiling point
Assay type: physicochemical
Settings: organic solvent or mixture, thermodynamic from solid; Chloroform, 61.2 ° C.; read-out: Solubility Estimate at The Boiling Point
Recorded Metric: solubility

**Query** Answer with reported solubility of COc1cc2ncnc(Oc3cccc(NC(=O)Nc4cc(C(C)(C)C(F)(F)F)on4)c3)c2cc1OC [Form A0]
**Result** > 50 mg/mL
